System Tested: HLA-B*07:02;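 further: lysates heated 10 min at 37–73 °C, complexes pulled down with pan-HLA I antibody, peptide signal by DIA-MS relative to 37 °C, Tm where half the complex is unfolded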
Test Name: thermal melting temperature (Tm) of peptide-HLA complex; higher = more thermostable pHLA complex
Stated Conditions: C1R-B*07:02
The full ranking holds about 1,400 sequences; the median of “thermal melting temperature (Tm) of peptide-HLA complex” is about 60, and the lowest 2% start at about 45. Only a selection was taken, and the lowest values are over-represented in it overall.
Readout Kind: thermal melting temperature (°C)
Express the result in °C but write the number alone.

residue_string=IPRSITVLV reported_measurement=62.4
residue_string=APSGGRLLSA reported_measurement=60.1
residue_string=LPRQPPMSL reported_measurement=66.1
residue_string=KPYQGNPTF reported_measurement=57.5
residue_string=HPVVSSVPL reported_measurement=57.8
residue_string=VPKPPSIEEF reported_measurement=62.3
residue_string=QPRSPGPDYSL reported_measurement=57.7
residue_string=RPKTPPVVI reported_measurement=59.6

State its thermal melting temperature for this sequence: FIRNRTLQL 61.5

State its thermal melting temperature for this sequence: YPARYRPTAL 58.2

State its thermal melting temperature for this sequence: APAPRPSL 58.1

State its thermal melting temperature for this sequence: HPISSEELLSL 58.6

State its thermal melting temperature for this sequence: FPHLREEIL 51.6

State its thermal melting temperature for this sequence: APFEPLASGIL 60.7

State its thermal melting temperature for this sequence: RPHAFQVIL 60.2

State its thermal melting temperature for this sequence: NPRNFSDNQL 53

Sourced from the supplement of paper PMC7726561
